The reader will find reported Deodorizing component emission amount values listed item by item below.
# Test system: Staphylococcus aureus strain NBRC12732
# assay.info: Deodorizing component emission test by microorganism
# Assay type: cell-based
# condition.set: GC/MS head space peak area minus control; 10 mg compound in 3 mL culture solution, 30° C. 20 hours; released: citronellal (2-3), 2,6-dimethyl-5-heptenal (2-4), trimethylhexanal (2-5), octanal (2-6)

CC(C)=CCCC(C)C=COC(=O)c1ccccc1 (stereo not shown) [Example 2-3, 3,7-dimethylocta-1,6-dienyl Benzoate] : 1,064,240,572

Prompt line: Fill blank: measured Deodorizing component emission amount of the molecule CC(C)=CCCC(C)=COC(=O)c1ccccc1 [Example 2-4, 2,6-dimethylhepta-1,5-dienyl Benzoate] is ____.
Response line: 132,554,000

Prompt line: Fill blank: measured Deodorizing component emission amount of the molecule CCCCCCC=COC(=O)c1ccccc1 [Example 2-6, 1-octenyl Benzoate] is ____.
Response line: 129,928,279

Prompt line: Fill blank: measured Deodorizing component emission amount of the molecule CC(C=COC(=O)c1ccccc1)CC(C)(C)C (stereo not shown) [Example 2-5, 3,5,5-trimethyl-1-hexenyl Benzoate] is ____.
Response line: 189,916,125
